>  <compound>
C=CC(=O)Nc1ccc(/C=C/C(=O)c2cc(OC)c(OC)c(OC)c2)cc1 [Compound 13g]

>  <melting point>
178 to 179 °C

$$$$
>  <compound>
O=C(CCCCl)Nc1ccc(C(=O)/C=C/c2ccccc2)cc1 [Compound 13h]

>  <melting point>
161 to 162 °C

$$$$
>  <compound>
O=C(CCCCl)Nc1ccc(C(=O)/C=C/c2ccc(F)cc2)cc1 [Compound 13j]

>  <melting point>
167 to 168 °C

$$$$
>  <compound>
COc1ccc(/C=C/C(=O)c2ccc(NC(=O)CCCCl)cc2)cc1OC [Compound 13l]

>  <melting point>
166 to 167 °C

$$$$
>  <compound>
COc1cc(/C=C/C(=O)c2ccc(NC(=O)CCCl)cc2)cc(OC)c1OC [Compound 13d]

>  <melting point>
183 to 184 °C

$$$$
>  <compound>
COc1cc(/C=C/C(=O)c2ccc(NC(=O)CCCCl)cc2)cc(OC)c1OC [Compound 13e]

>  <melting point>
170 to 171 °C

$$$$
>  <compound>
COc1cc(/C=C/C(=O)c2ccc(NC(=O)CCl)cc2)cc(OC)c1OC [Compound 13c]

>  <melting point>
182 to 183 °C

$$$$
>  <compound>
COc1cc(/C=C/C(=O)c2ccc(NC(=O)CCCCCl)cc2)cc(OC)c1OC [Compound 13f]

>  <melting point>
125 to 126 °C

$$$$

---

tested on: MGC-803 cells; experiment: MTT antiproliferative assay, MGC-803 cells; type: cell-based, human; details: Homo sapiens, MGC-803, 48 h, exposure for 48 h
pIC50: −log10 of the molar value.
pIC50: recorded values

>  <molecule>
COc1ccc(/C=C/C(=O)c2ccc(NC(=O)CCCCl)cc2)cc1OC [Compound 13l]

>  <readingQualifier>
=

>  <pIC50>
4.79

$$$$
>  <molecule>
O=C(CCCCl)Nc1ccc(C(=O)/C=C/c2ccccc2)cc1 [Compound 13h]

>  <readingQualifier>
=

>  <pIC50>
4.66

$$$$
>  <molecule>
C=CC(=O)Nc1ccc(/C=C/C(=O)c2cc(OC)c(OC)c(OC)c2)cc1 [Compound 13g]

>  <readingQualifier>
=

>  <pIC50>
5.74

$$$$
>  <molecule>
COc1cc(/C=C/C(=O)c2ccc(NC(=O)CCl)cc2)cc(OC)c1OC [Compound 13c]

>  <readingQualifier>
=

>  <pIC50>
5.73

$$$$
>  <molecule>
COc1cc(/C=C/C(=O)c2ccc(NC(=O)CCCCCl)cc2)cc(OC)c1OC [Compound 13f]

>  <readingQualifier>
=

>  <pIC50>
5.52

$$$$
>  <molecule>
O=C(CCCCl)Nc1ccc(C(=O)/C=C/c2ccc(F)cc2)cc1 [Compound 13j]

>  <readingQualifier>
<

>  <pIC50>
4.40

$$$$
>  <molecule>
COc1cc(/C=C/C(=O)c2ccc(NC(=O)CCCCl)cc2)cc(OC)c1OC [Compound 13e]

>  <readingQualifier>
=

>  <pIC50>
5.81

$$$$
>  <molecule>
COc1cc(/C=C/C(=O)c2ccc(NC(=O)CCCl)cc2)cc(OC)c1OC [Compound 13d]

>  <readingQualifier>
=

>  <pIC50>
5.79

$$$$
